- tgt: TrBgl2 (Trichoderma reesei)
- Sequence (O93785 entry or part of it): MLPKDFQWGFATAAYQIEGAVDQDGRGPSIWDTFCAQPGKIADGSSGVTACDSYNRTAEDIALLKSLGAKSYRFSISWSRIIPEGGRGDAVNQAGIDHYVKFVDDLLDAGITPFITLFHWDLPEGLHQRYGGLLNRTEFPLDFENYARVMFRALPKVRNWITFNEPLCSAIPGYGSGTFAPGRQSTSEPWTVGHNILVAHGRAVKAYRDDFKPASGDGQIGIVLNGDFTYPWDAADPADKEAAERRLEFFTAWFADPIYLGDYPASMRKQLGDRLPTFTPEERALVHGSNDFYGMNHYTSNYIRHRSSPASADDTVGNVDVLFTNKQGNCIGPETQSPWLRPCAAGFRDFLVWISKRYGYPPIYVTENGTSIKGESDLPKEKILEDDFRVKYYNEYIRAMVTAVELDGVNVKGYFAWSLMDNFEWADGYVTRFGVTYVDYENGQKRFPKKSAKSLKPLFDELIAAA
- methodDescription: MUG cleavage fluorescent kinetic assay (AC50 / Amax / IC50)
- Type: biochemical
- testSettings: inhibition of TrBgl2, MUG substrate
pIC50: −log10 of the molar value.
propertyMeasured: pIC50

* OC[C@H]1CNC[C@@H](O)[C@@H]1O [isofagomine, reference compound] | 6.28

====

- tgt: TrBgl2 (Trichoderma reesei)
- methodDescription: MUG cleavage fluorescent kinetic assay (AC50 / Amax / IC50)
- Format: biochemical
- testSettings: titration of compound from 30 µM to 3.8 mM; substrate conc. 500 µM
propertyMeasured: AC50

• S=C(Nc1ccccc1Cl)N1CCOCC1 = > 4 mM
• Cc1ccccc1NC(=S)N1CCOCC1 = 1.81 mM
• Cc1cccc(C)c1NC(=S)NCCO = > 4 mM
• Cc1ccc(C)c(NC(=S)N2CCOCC2)c1 = > 4 mM

====

- tgt: TrBgl2 (Trichoderma reesei)
- methodDescription: MUG cleavage fluorescent kinetic assay (AC50 / Amax / IC50)
- Assay type: biochemical
- testSettings: pH 6, titration of compound from 30 µM to 3.8 mM; substrate conc. 500 µM; read-out: Amax
propertyMeasured: Emax (%)

- Cc1ccccc1NC(=S)N1CCOCC1: 139
- S=C(Nc1ccccc1Cl)N1CCOCC1: 155
- Cc1cccc(C)c1NC(=S)NCCO: 128
- Cc1ccc(C)c(NC(=S)N2CCOCC2)c1: 160

====

- methodDescription: Solubility of compound
- Type: physicochemical
propertyMeasured: solubility

* CCN(CCO)C(=S)Nc1c(C)cccc1C [Compound 8] | ≤ 16 mM
